# IC50 annotations
target: UniProtKB P12931
Sequence (P12931 whole entry, looked up): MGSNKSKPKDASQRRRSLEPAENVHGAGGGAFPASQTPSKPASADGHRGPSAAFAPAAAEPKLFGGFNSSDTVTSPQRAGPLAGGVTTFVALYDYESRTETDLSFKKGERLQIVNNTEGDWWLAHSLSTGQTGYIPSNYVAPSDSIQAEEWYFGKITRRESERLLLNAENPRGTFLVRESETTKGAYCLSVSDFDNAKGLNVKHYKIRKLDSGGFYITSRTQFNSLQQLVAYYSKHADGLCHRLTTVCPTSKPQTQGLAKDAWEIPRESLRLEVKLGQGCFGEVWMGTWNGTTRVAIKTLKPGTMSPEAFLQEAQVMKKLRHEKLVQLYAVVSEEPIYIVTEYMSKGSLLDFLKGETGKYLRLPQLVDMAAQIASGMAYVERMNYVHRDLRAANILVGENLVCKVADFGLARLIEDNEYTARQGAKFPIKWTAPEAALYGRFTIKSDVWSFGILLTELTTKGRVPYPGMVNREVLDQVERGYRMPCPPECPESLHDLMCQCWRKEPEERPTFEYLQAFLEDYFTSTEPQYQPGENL
The figure you give is taken to be in nM; do not add the unit.

{"columns": ["molecule", "measured_parameter", "measure_unit", "measured_result"],
 "data": [
  ["COc1cc(Nc2cc(Oc3ccc(NC(=O)Nc4cc(C(C)(C)C)cc(NS(C)(=O)=O)c4OC)c4ccccc34)ccn2)cc(OC)c1C(=O)NCCN1CCOCC1 [17(ae)]", "IC50", "nM", 31],
  ["COc1cc(Nc2cc(Oc3ccc(NC(=O)Nc4cc(C(C)(C)C)cc(NS(C)(=O)=O)c4OC)c4ccccc34)ccn2)ccc1C(=O)NCCCN1CCOCC1 [17(b)]", "IC50", "nM", 20],
  ["COCCOCCOCCNC(=O)c1ccc(Nc2cc(Oc3ccc(NC(=O)Nc4cc(C(C)(C)C)cc(C(N)=O)c4OC)c4ccccc34)ccn2)cc1OC [Example 6]", "IC50", "nM", 36],
  ["COc1cc(Nc2cc(Oc3ccc(NC(=O)Nc4cc(C(C)(C)C)cc(NS(C)(=O)=O)c4OC)c4ccccc34)ccn2)ccc1C(=O)NCCN1CCCCC1 [17(p)]", "IC50", "nM", 21],
  ["COc1cc(Nc2cc(Oc3ccc(NC(=O)Nc4cc(C(C)(C)C)cc(NS(C)(=O)=O)c4OC)c4ccccc34)ccn2)cc(OC)c1C(=O)NCCN1CCN(C)CC1 [Example 22]", "IC50", "nM", 17],
  ["COc1cc(Nc2cc(Oc3ccc(NC(=O)Nc4cc(C(C)(C)C)cc(NS(C)(=O)=O)c4OC)c4ccccc34)ccn2)ccc1C(=O)NC[C@H](O)[C@H](O)[C@H](O)CO [Example 42]", "IC50", "nM", 21],
  ["COc1cc(Nc2cc(Oc3ccc(NC(=O)Nc4cc(C(C)(C)C)cc(NS(C)(=O)=O)c4OC)c4ccccc34)ccn2)ccc1P(C)(=O)O [Example 44]", "IC50", "nM", 20],
  ["COc1cc(Nc2cc(Oc3ccc(NC(=O)Nc4cc(C(C)(C)C)cc(N(CCO)S(C)(=O)=O)c4OC)c4ccccc34)ccn2)ccc1C(=O)NCCN1CC[S+]([O-])CC1 [Example 48]", "IC50", "nM", 20]
]}

Consider the record given below.
Report IC50 for COc1cc(Nc2cc(Oc3ccc(NC(=O)Nc4cc(C(C)(C)C)cc(NS(C)(=O)=O)c4OC)c4ccccc34)ccn2)ccc1C(=O)NCCN1CCOCC1(C)C [17(k)] tested on UniProtKB P12931. 74
